tested on: Malme-3M; assay: NCI tumour cell line growth inhibition, 48 h
Calls of active or inactive are those of the source. Cut-off read from the data, not from the text of the source: active = GI50 up to about 1.1 µM and inactive = higher.
Response enum: T = active, F = inactive

Would you please look over these solved cases?
compound=CCCCc1ccc(Nc2nc3ncnc-3c[nH]2)cc1 assigned_category=F
compound="C[C@@]12C(=O)OC(=O)[C@]1(C)[C@H]1CC[C@@H]2O1 [CANTHARIDIN]" assigned_category=F

[ask] Recorded call for Cc1nn(C(=O)Cc2ccccc2)c2c1C(c1ccccc1O)SC(=N)N2 (stereo not given) ?
[reply] F

[ask] // return assay outcome for CC1=NN(C(=O)CC(=O)Nc2ccc(Cl)cc2)C(=O)C1/N=N\c1ccc(S(=O)(=O)c2ccc(/N=N/C3C(=O)N(C(=O)CC(=O)Nc4ccc(Cl)cc4)N=C3C)cc2)cc1 (stereo not given)
[reply] F

[ask] Which result was noted for this compound in the test: COc1ccc(/C=C/C2=NN(c3cccc(S(=O)(=O)O)c3)C3(C2)SCC(=O)N3c2nc3ccccc3s2)cc1 (stereo not given)
[reply] F

[ask] Lab log entry: CCC/C(Cl)=N/OC(=O)Nc1cc(C(F)(F)F)ccc1OC — outcome as called in the assay?
[reply] F

[ask] Please let me know the test result on file for CN(C)CC1CCCCCCCCCC(CN(C)C)C1=O (stereo not given) .
[reply] F

---

Task for the reader: assign each of the following compounds its reported GI50.
tested on: OVCAR-3; assay: NCI tumour cell line growth inhibition, 48 h
Active and inactive are the calls of the source. No stated cut-off is given here; in the data, active = GI50 up to about 1.1 µM and inactive = higher.

compound="CN(C)CC1CCCCCCCCCC(CN(C)C)C1=O (stereo not given)" reported_value="> 20.3 µM (inactive)"

Working through the 8 compounds below one at a time, give GI50 for each.
1. c1ccc(-c2cc(-c3cc(-c4ccccn4)[nH]n3)n[nH]2)nc1
2. N=C(N)NS(=O)(=O)c1ccc(NC(=O)c2cccc3c(NNc4ccc(S(=O)(=O)N=C(N)N)cc4)c4ccccc4nc23)cc1
3. O=C(/C=C1\Nc2ccccc2C(=O)N1c1ccccc1Cl)c1ccccc1
4. COC(=O)C1OC(SCCN)C(O)C(O)C1O (stereo not given)
5. CC1=C(C(=O)N[C@@H](CC(C)C)C(=O)O)N2C(=O)[C@@H](NC(=O)[C@@H](N)Cc3ccccc3)[C@H]2SC1
6. CCOC(=O)C1C=C2O[C@@H]3OC4(CCCCC4)O[C@@H]3C2C2C(=O)CCC(=O)[C@@]12C(=O)OC (stereo not given in full)
7. C=CCOC(=O)c1c(C)[n+]([O-])c2cc(Cl)c(Cl)cc2[n+]1[O-]
8. NCCCNCCCCN1CCOC1=O

[reply]
["74.1 µM (inactive)", "38.2 µM (inactive)", "88.9 µM (inactive)", "> 100 µM (inactive)", "> 100 µM (inactive)", "82.4 µM (inactive)", "20.1 µM (inactive)", "> 100 µM (inactive)"]

[ask] Request the reported GI50 associated with COc1ccc(-c2sc(Br)c3c2C(=O)C2OC(=O)NC32)cc1OC (stereo not given)
[reply] > 100 µM (inactive)

---

system: MCF7; assay: NCI tumour cell line growth inhibition, 48 h
Active and inactive are the calls of the source. Rule as the data show it: active = GI50 up to about 1.1 µM and inactive = higher.
// allowed return values: true (1) (active), false (0) (inactive)

Would you please look over these solved cases?
compound=CCCCc1ccc(Nc2nc(S)c3ncn(COCCO)c3n2)cc1 experimental_target=MCF7 assigned_category="false (0)"
compound="CCC1=CC2CN3CCc4c([nH]c5ccccc45)C(C(=O)OC)(C2)C13 (configuration not stated)" experimental_target=MCF7 assigned_category="false (0)"

[ask] Kindly provide the recorded test outcome for the following compound: Cc1cccc2nc(-c3ccccc3)cc(=O)n12
[reply] false (0)

[ask] So what was the verdict on COC(=O)c1ccc2c(c1)CC1(C2)Cc2ccccc2C1=O (configuration not stated) in this test?
[reply] false (0)

[ask] Write down the call the test reported for this compound. Item: COc1ccc(-c2sc(Br)c3c2C(=O)C2OC(=O)NC32)cc1OC (configuration not stated)
[reply] false (0)

[ask] What classification did COc1cc(CNC(=O)CCCCCCCC/C=C/Br)ccc1O end up with in this test?
[reply] false (0)

[ask] Hi, sorry to bother you, what did the test record for N/C(=N\Nc1ccc(S(N)(=O)=O)cc1)c1cnccn1 ?
[reply] false (0)

---

test system: OVCAR-4; assay: NCI tumour cell line growth inhibition, 48 h
Calls of active or inactive are those of the source. Cut-off read from the data, not from the text of the source: active = GI50 up to about 1.1 µM and inactive = higher.
Your response should consist of one outcome taken from active, inactive

compound=C=CC(=O)N1C/C(=C\c2ccc(Cl)c(Cl)c2)C(=O)/C(=C/c2ccc(Cl)c(Cl)c2)C1 experimental_target=OVCAR-4 assigned_category=active

[ask] Could you kindly confirm the outcome this assay logged for COc1ccc(/C=C\c2cc(OC)c(OC)c(OC)c2)c(O)c1O ?
[reply] inactive

[ask] Answer briefly: the call reported for CN(C)/C=N/S(=O)(=O)c1nn2c(C=O)c(-c3ccc([N+](=O)[O-])cc3)nc2s1 in this assay.
[reply] inactive

[ask] Please indicate how the test categorized Cc1cccc(Nc2nc3ccccc3nc2NS(=O)(=O)c2ccc(N)cc2)c1 .
[reply] inactive

[ask] Kindly provide the recorded test outcome for the following compound: CCCCc1ccc(Nc2nc(S)c3ncn(COCCO)c3n2)cc1
[reply] inactive

[ask] Returns: the outcome recorded for CN(C)c1nc(NN)c2c(-c3ccccc3)c(-c3ccccc3)oc2n1 in this assay.
[reply] inactive

[ask] Dear all, I need the recorded test outcome for COc1ccc(-c2cc(O)c3cccnc3n2)cc1 , thank you.
[reply] inactive

---

test system: BT-549; experiment: NCI tumour cell line growth inhibition, 48 h
Activity calls are given as the source filed them. No stated cut-off is given here; in the data, active = GI50 up to about 1.1 µM and inactive = higher.
Outcomes you can answer with include only these: Yes = active, No = inactive

For orientation, consider the following solved cases.
compound=Cc1ccccc1/N=C/N(C)C assigned_category=No
compound="Cc1cc2c(c3oc(C4(C)OC4C4OC4C)cc(=O)c13)C(=O)c1c(O)c(C3CC(C)(N(C)C)C(O)C(C)O3)cc(C3CC(N(C)C)C(O)C(C)O3)c1C2=O (centres undefined)" assigned_category=Yes
compound=Fc1cc(-c2cc(-c3ccccc3)no2)c(Cl)cc1Cl assigned_category=No
compound=O=C(N[C@@H](Cc1ccccc1)B(O)O)[C@H](Cc1cccc2ccccc12)NC(=O)N1CCOCC1 assigned_category=Yes
compound=CCOC(=O)c1nc2ccccc2nc1Nc1ccc(F)cc1 assigned_category=No
compound=C[C@@H](c1ccccc1)n1c(N)c(-c2ccccn2)c2ccc([N+](=O)[O-])cc2c1=O assigned_category=No
compound="COc1ccc(C2(C3c4cc(OC)c(OC)cc4CCN3C)SCCCS2)cc1O (centres undefined)" assigned_category=No
compound="Cc1cn(C2CC(O)C(Cn3nncc3Cn3cnc4c(N)ncnc43)O2)c(=O)[nH]c1=O (centres undefined)" assigned_category=No

Next:
[ask] Test call for this compound, please: CC1=C(C(=O)N[C@@H](CC(C)C)C(=O)O)N2C(=O)[C@@H](NC(=O)[C@@H](N)Cc3ccccc3)[C@H]2SC1
[reply] No

---

test system: A498; experiment: NCI tumour cell line growth inhibition, 48 h
The source made the active and inactive calls. No stated cut-off is given here; in the data, active = GI50 up to about 1.1 µM and inactive = higher.
Assignment: determine reported GI50 for the given molecules.

molecule=CC1=C2N3C[C@@H](n4c(=O)n(C)c(=O)n43)C23CCC1n1c(=O)n(C)c(=O)n13 reported_value="> 100 µM (inactive)"
molecule="CNC1C(OC2C(OC3C(O)C(O)C(O)C(O)C3O)OC(C)C2(O)CO)OC(CO)C(O)C1O.N=C(N)N.NC(=O)O (centres undefined)" reported_value="> 100 µM (inactive)"
molecule=COc1ccc(Cc2nc3cc(C(F)(F)F)ccc3n2CCCN(C)C)cc1 reported_value="17.3 µM (inactive)"
molecule="COC1=CCC2=C(CCN(C(=O)C3CCC3)C2Cc2ccc(OC)c(O)c2)C1 (centres undefined)" reported_value="19.4 µM (inactive)"
molecule=CC(=O)Oc1c(C)c2c(c3ccccc13)OC(C)(C)C2 reported_value="20.9 µM (inactive)"
molecule="COc1cccc(NC(=O)C(=O)C2C=CCS2(=O)=O)c1 (centres undefined)" reported_value="> 100 µM (inactive)"
molecule="[N-]=[N+]=Nc1ccc2c(c1)Sc1ccccc1N2CCCCN1CCN(Cc2ccc(C(=O)c3ccc(CSCC(N)C(=O)O)cc3)cc2)CC1 (centres undefined)" reported_value="18.5 µM (inactive)"
molecule=COc1ccc2[nH]c3c(C)c4c(c(C)c3c2c1)CN(C)C=C4 reported_value="1.36 µM (inactive)"
molecule=O=C(CCC(=O)Nc1ccc(Cl)c(Cl)c1)CC(=O)c1ccc2ccccc2c1 reported_value="> 100 µM (inactive)"
molecule="Nc1ncnc2c(C3OC(CO)C(O)C3O)n[nH]c12 (centres undefined)" reported_value="0.484 µM (active)"

Items follow; give GI50 for each.
1. CCCCc1ccc(Nc2nc3ncnc-3c[nH]2)cc1
2. CC1=NN(C(=O)CC(=O)Nc2ccc(Cl)cc2)C(=O)C1/N=N\c1ccc(S(=O)(=O)c2ccc(/N=N/C3C(=O)N(C(=O)CC(=O)Nc4ccc(Cl)cc4)N=C3C)cc2)cc1 (centres undefined)
3. CN1C(=O)C(=CNc2ccccc2Cl)C(=O)N(C)C1=O
4. FC(F)(F)c1ccc2c(c1)nc(Cc1ccc(Cl)cc1)n2CC1CCCN2CCCCC12 (centres undefined)
5. O=C1CSC(c2ccccc2)N1c1nc2cc3sc(N4C(=O)CSC4c4ccccc4)nc3cc2s1 (centres undefined)
6. C/C(=N/NC(=S)Nc1ccccc1C)c1ccccn1

[reply]
26.1 µM (inactive)
> 100 µM (inactive)
> 100 µM (inactive)
14.2 µM (inactive)
> 100 µM (inactive)
1.67 µM (inactive)
